Where these numbers come from: ChEMBL document CHEMBL1143171

Target: Peroxisome proliferator-activated receptor alpha (Homo sapiens)
Sequence (Q07869 whole entry): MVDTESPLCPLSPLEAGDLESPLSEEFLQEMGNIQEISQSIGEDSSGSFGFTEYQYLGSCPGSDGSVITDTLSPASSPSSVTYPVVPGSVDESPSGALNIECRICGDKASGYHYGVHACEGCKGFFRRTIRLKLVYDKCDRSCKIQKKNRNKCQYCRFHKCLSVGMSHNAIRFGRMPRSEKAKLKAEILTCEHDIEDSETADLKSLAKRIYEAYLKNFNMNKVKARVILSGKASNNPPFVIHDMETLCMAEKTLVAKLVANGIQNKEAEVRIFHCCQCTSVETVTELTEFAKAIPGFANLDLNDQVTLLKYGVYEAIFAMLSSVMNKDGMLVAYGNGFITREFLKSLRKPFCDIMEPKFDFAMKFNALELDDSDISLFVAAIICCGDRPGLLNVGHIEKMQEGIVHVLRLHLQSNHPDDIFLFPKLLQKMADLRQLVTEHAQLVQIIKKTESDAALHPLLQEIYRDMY
Assay: Agonist activity at human PPARalpha expressed in CV1 cells by transactivation assay
EC50 by entry:
Give just the numeric value; µM need not be written.

Previously resolved entries follow.
>  <Molecular string>
Cc1ccc(-c2nc(CCCC[C@H]3CO[C@@](C)(C(=O)O)OC3)c(C)o2)cc1F

>  <Unit string>
µM

>  <Measurement>
0.01

$$$$
>  <Molecular string>
Cc1cccc(-c2nc(CCCC[C@H]3CO[C@@](C)(C(=O)O)OC3)c(C)o2)c1

>  <Unit string>
µM

>  <Measurement>
0.03

$$$$
>  <Molecular string>
Cc1oc(-c2ccccc2)nc1CCCC[C@H]1CO[C@@](C)(C(=O)O)OC1

>  <Unit string>
µM

>  <Measurement>
0.3

$$$$
>  <Molecular string>
Cc1ccc(-c2nc(CCCC[C@H]3CO[C@@](C)(C(=O)O)OC3)c(C)o2)cc1C

>  <Unit string>
µM

>  <Measurement>
0.003

$$$$

For Cc1ccccc1-c1nc(CCCC[C@H]2CO[C@@](C)(C(=O)O)OC2)c(C)o1 , what is its reported EC50?
0.3
